Food intake relative to vehicle (%) 24-48 hr, 10 nmol/kg: recorded values
- Tested on: Sprague Dawley (SD) rats
- Method: Acute food intake in ad libitum fed rats after a single subcutaneous administration;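 note: food intake monitored in the HM2 system, three rats per cage kept on a reversed light cycle, with food and water freely available after the subcutaneous dose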
- Type: in vivo, rat
- Condition parameters: Table 6a, rat, single administration, 24-48 hr
Starred links: 1 amine or outer side, 2 acyl side, 3 side chain; linkers in the order of their positions; H or OH if unused. Non-standard residues stand in square brackets, D forms with d. Groups on a side chain read outwards from the residue. *: point of attachment. C20 diacid = O=C(O)CCCCCCCCCCCCCCCCCCC(=O)*; C18 diacid = O=C(O)CCCCCCCCCCCCCCCCC(=O)*; γGlu = O=C(O)[C@H](CCC(=O)[*:2])N[*:1]; εLys = N[C@@H](CCCCN[*:1])C(=O)[*:2]; Trx = NC[C@H]1CC[C@H](C(=O)O)CC1; AEEA = NCCOCCOCC(=O)O; Aib = CC(C)(N)C(=O)O
The reply should contain only the number, in %.

Worked cases, Food intake relative to vehicle (%) 24-48 hr, 10 nmol/kg given:
{"columns": ["Substance", "Subject of test", "Reported measurement"],
 "data": [
  ["H-H[Aib]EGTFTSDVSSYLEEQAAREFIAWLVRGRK([AEEA-AEEA-γGlu-C18 diacid])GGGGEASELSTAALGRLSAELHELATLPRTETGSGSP-NH2 [Compound 0111]", "Sprague Dawley (SD) rats", 75],
  ["H[Aib]EGTFTSDVSSYLEEQAARK([γGlu-C18 diacid])FIAWLVRGRK([γGlu-C18 diacid])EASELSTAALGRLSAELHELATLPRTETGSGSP-NH2 [Compound 0131]", "Sprague Dawley (SD) rats", 80],
  ["H-H[Aib]EGTFTSDVSSYLEGQAAKEFIAWLVRGRK([AEEA-AEEA-γGlu-C18 diacid])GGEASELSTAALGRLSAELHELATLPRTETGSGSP-NH2 [Compound 0042]", "Sprague Dawley (SD) rats", 101],
  ["H-H[Aib]EGTFTSDVSRYLEEQAAREFIEWLVRGRK([AEEA-AEEA-γGlu-Trx-C20 diacid])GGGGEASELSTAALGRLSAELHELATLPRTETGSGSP-NH2 [Compound 0511]", "Sprague Dawley (SD) rats", 75],
  ["H-H[Aib]EGTFTSDVSSYLEGQAAK([AEEA-AEEA-γGlu-C18 diacid])EFIAWLVRGRGGGGGGGGGEASELSTAALGRLSAELHELATLPRTETGSGSP-NH2 [Compound 0052]", "Sprague Dawley (SD) rats", 86],
  ["HWEGTFTSDVSSYLEEK([εLys-AEEA-AEEA-γGlu-Trx-C20 diacid])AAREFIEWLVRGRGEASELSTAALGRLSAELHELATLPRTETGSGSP-NH2 [Compound 0434]", "Sprague Dawley (SD) rats", 105]
]}

Here's the next entry for you.
According to the records, this substance H-H[Aib]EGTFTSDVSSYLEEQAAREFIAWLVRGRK([AEEA-AEEA-γGlu-C20 diacid])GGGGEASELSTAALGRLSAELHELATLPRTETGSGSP-NH2 [Compound 0502] displays Food intake relative to vehicle (%) 24-48 hr, 10 nmol/kg of 72

###

Measured EC50, listed per entry for reference.
- Subject of test: human amylin receptor (hAmyR3) (Homo sapiens, UniProt O60896+P30988)
- Construct: host or cells: BHK cells (Hollex-1 line: human calcitonin receptor (a) + CRE-Luc), further transfected with human RAMP3
- Sequence (P30988 25-474): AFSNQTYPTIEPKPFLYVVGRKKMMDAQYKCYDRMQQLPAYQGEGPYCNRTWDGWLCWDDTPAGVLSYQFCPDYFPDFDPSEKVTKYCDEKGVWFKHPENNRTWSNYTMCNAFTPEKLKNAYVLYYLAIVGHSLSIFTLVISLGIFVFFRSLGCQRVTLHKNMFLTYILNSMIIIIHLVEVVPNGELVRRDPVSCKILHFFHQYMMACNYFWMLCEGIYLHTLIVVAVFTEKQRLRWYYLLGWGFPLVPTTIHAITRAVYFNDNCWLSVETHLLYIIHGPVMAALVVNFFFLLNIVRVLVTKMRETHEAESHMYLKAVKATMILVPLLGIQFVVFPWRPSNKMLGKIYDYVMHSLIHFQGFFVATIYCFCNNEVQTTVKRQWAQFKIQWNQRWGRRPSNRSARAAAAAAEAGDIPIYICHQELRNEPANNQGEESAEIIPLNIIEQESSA
- Sequence (O60896 24-148): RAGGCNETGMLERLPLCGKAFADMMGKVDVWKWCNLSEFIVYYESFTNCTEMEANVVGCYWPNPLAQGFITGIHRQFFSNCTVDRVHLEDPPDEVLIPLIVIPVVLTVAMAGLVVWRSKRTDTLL
- Method: Human amylin receptor in vitro potency assay (CRE-luciferase reporter, BHK cells);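 note: BHK cells expressing human calcitonin receptor plus RAMP3 (amylin-3 receptor) with a CRE-luciferase reporter, agonist activity read as luminescence from cAMP-driven transcription, 7-point serial dilutions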
- Format: cell-based
- Condition parameters: Table 4a; BHK hAmyR3/CRE-Luc cells, 3 hours; read-out: Human AmyR3 potency [EC50 (pM)]
Starred links: 1 amine or outer side, 2 acyl side, 3 side chain; linkers in the order of their positions; H or OH if unused. Non-standard residues stand in square brackets, D forms with d. Groups on a side chain read outwards from the residue. *: point of attachment. C18 diacid = O=C(O)CCCCCCCCCCCCCCCCC(=O)*; C16 diacid = O=C(O)CCCCCCCCCCCCCCC(=O)*; γGlu = O=C(O)[C@H](CCC(=O)[*:2])N[*:1]; AEEA = NCCOCCOCC(=O)O; Aib = CC(C)(N)C(=O)O
Please provide the amount together with its unit, number first.

Entry H-H[Aib]EGTFTSDVSK([AEEA-AEEA-γGlu-C16 diacid])YLEEQAARK([AEEA-AEEA-γGlu-C16 diacid])FIAWLVRGRGGGGGEASELSTAALGRLSAELHELATLPRTETGSGSP-NH2 [Compound 0516] ; EC50 = 8.9 pM

Field EC50 (entry H-H[Aib]EGTFTSDVSSYLEEQAAREFIAWLVRK([AEEA-AEEA-γGlu-C16 diacid])RGGGGGASELSTAALGRLSK([AEEA-AEEA-γGlu-C16 diacid])ELHELATLPRTETGSGSP-NH2 [Compound 0297] ) reads 46 pM

Summary for this substance, H-H[Aib]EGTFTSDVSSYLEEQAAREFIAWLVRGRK([AEEA-AEEA-AEEA-γGlu-C18 diacid])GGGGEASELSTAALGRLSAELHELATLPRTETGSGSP-NH2 [Compound 0661] : EC50 is 14.4 pM

For reference, reported EC50 for H[Aib]EGTFTSDVSSYLEEQAARK([AEEA-AEEA-γGlu-C18 diacid])FIAWLVRGK([AEEA-AEEA-γGlu-C18 diacid])GGGGGGGGGEASELSTAALGRLSAELHELATLPRTETGSGSP-NH2 [Compound 0109] stands at 19.1 pM
